Reference source for all entries: patent US20080234262A1

I'd be grateful if you could share measured IC50 for these entries.
- Tested on: breast line MDA468
- Assay procedure: In vitro cell culture growth assay (MTS), MDA468
- Assay type: cell-based, human
- Applied conditions: Homo sapiens, 72 h, MDA468 cells, three days after drug treatment
Number only, in nM; omit the unit.

Problem: What does the data say about its IC50? Entry: C=CC(=O)Nc1ccc(-c2nc(N3CCOCC3)c3cnn(C4CCN(C(=O)C(C)C)CC4)c3n2)cc1 [Compound 947]
Solution: 4800

Problem: What does the data say about its IC50? Entry: CNC(=O)Nc1ccc(-c2nc(N3CCOCC3)c3cnn(C4CCN(C(=O)c5ccc(C#N)cc5)CC4)c3n2)cc1 [Example 368]
Solution: 200

Problem: What does the data say about its IC50? Entry: COC(=O)Nc1ccc(-c2nc(N3CCOCC3)c3cnn(C4CCN(Cc5cccnc5OC)CC4)c3n2)cc1 [Compound 452]
Solution: 2200

Problem: What does the data say about its IC50? Entry: CC(C)OC(=O)N1CCC(n2ncc3c(N4CCOCC4)nc(-c4ccc(NC(=O)Nc5cccnc5)cc4)nc32)CC1 [Compound 838]
Solution: 150
